# MEASUREMENT NOTES: Primary redox qHTS assay for identification of artifact compounds. (AID 1845223);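 note: 0% = DMSO and 100% = reference compound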
# MEASUREMENT SETUP: Amplex Red/HRP redox cycling with DTT, fluorescence; series mostly up to 53.8 µM
# Description: PI: Alexander Tropsha Ph.D. UNC Eshelman School of Pharmacy University of North Carolina, Chapel Hill, North Carolina Hits from high-throughput screening (HTS) of chemical libraries are often false positives due to their interference with the assay detection technology. […] Using these curated datasets, we developed and validated several Quantitative Structure-Interference Relationship (QSIR) models to predict nuisance behavior. […]
Results filed as inconclusive are left out. Calls of active or inactive are those of the source. Calls come from the whole dose curve; as a rule, active = well fitted activation curve with a large enough effect; inconclusive = small, poorly fitted or top-dose-only effect; inactive = flat fitted curve, though single readings scatter.

{"COMPOUND": "C[C@H]1CC[C@@]2(OC1)O[C@H]1CC3C4CC=C5C[C@H](O)C[C@@H](O[C@@H]6O[C@@H](C)[C@H](O)[C@@H](O)[C@H]6O[C@@H]6O[C@@H](C)[C@H](O)[C@@H](O)[C@H]6O)[C@]5(C)C4CC[C@]3(C)[C@H]1[C@@H]2C (stereo partly drawn)", "redox activity (% of DA3003)": "inactive"}
{"COMPOUND": "CC1CCC2(C)C(CC(O)C(O)C23CO3)C1(C)CCC1=CC(O)OC1=O (stereo not drawn)", "redox activity (% of DA3003)": "inactive"}
{"COMPOUND": "CC(CCC1C(C(=O)O)=CC(=O)CC1(C)C)O[C@@H]1O[C@H](CO)[C@@H](O)[C@H](O)[C@H]1O (stereo partly drawn)", "redox activity (% of DA3003)": "inactive"}

###

# Test system: PA-1
# MEASUREMENT NOTES: Primary qHTS to identify gynecologic anti-cancer compounds using libraries of approved drugs and bioactive compounds (AID 1345084); note: % is set by controls: 0 for no effect and ±100 for the full control effect; nearly all actives have a fitted effect of over 55% in size
# MEASUREMENT SETUP: Gynecologic cancer cell panel viability, ATPlite luminescence, 48 h; series mostly up to 57.5 µM
Records with an inconclusive call do not appear. Activity calls are given as the source filed them. Calls come from the whole dose curve; as a rule, active = well fitted cell-killing curve with a large enough effect; inconclusive = small, poorly fitted or top-dose-only effect, or effect the other way; inactive = flat fitted curve, though single readings scatter.

{"COMPOUND": "COc1cc(/C=C/C(=O)O[C@H]2[C@H](O)[C@@H](CO)O[C@@]2(CO)O[C@H]2O[C@H](COC(=O)c3ccc(O)cc3)[C@@H](O)[C@H](O)[C@H]2O)cc(OC)c1OC", "activity change, negative = cytotoxicity": "inactive"}
{"COMPOUND": "O=C(C1CC1)N1CC[C@@H](Cc2n[nH]c(=O)n2-c2ccc(-c3ccc4occc4c3)cc2)C1", "activity change, negative = cytotoxicity": "inactive"}
{"COMPOUND": "CC(=O)OC[C@@]12[C@@H](OC(C)=O)C[C@@H](C)[C@](C)([C@@H]3C[C@H]4C=CO[C@H]4O3)[C@H]1CCC[C@]21CO1", "activity change, negative = cytotoxicity": "inactive"}
{"COMPOUND": "C[C@@H]1C[C@H](O)/C=C/[C@H](O)[C@@H](O)CC(=O)O1", "activity change, negative = cytotoxicity": "inactive"}
{"COMPOUND": "CCc1cc2c(=O)c(-c3nc4ccccc4s3)coc2c(CN2CCCCC2)c1O", "activity change, negative = cytotoxicity": "inactive"}
{"COMPOUND": "COc1cccc(-c2ccc([C@@H](Oc3cc(-c4ccc(C[C@H](N)C(=O)O)cc4)nc(N)n3)C(F)(F)F)cc2)c1", "activity change, negative = cytotoxicity": "inactive"}
{"COMPOUND": "C[C@@H]1CC[C@]2(C)C(C[C@@H](O)[C@H](O)[C@]23CO3)[C@@]1(C)CCc1ccoc1 (stereo partly drawn)", "activity change, negative = cytotoxicity": "inactive"}
{"COMPOUND": "C[C@@H]1C[C@H](O[C@@H]2O[C@H](CO[C@@H]3OC[C@](O)(CO)[C@H]3O)[C@@H](O)[C@H](O)[C@H]2O)CC(C)(C)[C@H]1/C=C/[C@@H](C)O", "activity change, negative = cytotoxicity": "inactive"}

###

# MEASUREMENT NOTES: Primary fluorescence-based thiol-reactive (MSTI) qHTS assay for identification of artifact compounds. (AID 1845221); note: nearly all actives have a fitted effect of over 65% in size
# MEASUREMENT SETUP: MSTI thiol-reactivity probe, 1 h; series mostly up to 53.8 µM
Inconclusive results are not listed. Calls of active or inactive are those of the source. Calls follow the shape of the dose curve; as a rule, active = well fitted inhibition curve with a large enough effect; inconclusive = small, poorly fitted or top-dose-only effect; inactive = no such curve, though single readings can be large or run the other way.
Outcomes: 1 (yes) (active), 0 (no) (inactive)

{"MOLECULE": "CC(=O)c1c(O)cc2cccc3c2c1CC(C)(O)O3 (centres undefined)", "ASSIGNED LABEL": "1 (yes)"}
{"MOLECULE": "NC(=O)[C@H]1CCCCc2c1[nH]c1ccc(Cl)cc21", "ASSIGNED LABEL": "0 (no)"}
{"MOLECULE": "CC12CC34C=CC(=O)C(C)(CCC(=O)O)C3C(CC1C4)O2 (centres undefined)", "ASSIGNED LABEL": "0 (no)"}
{"MOLECULE": "COC(=O)C[C@@H]1C(C(=O)O)=CO[C@@H](O[C@@H]2O[C@H](CO)[C@@H](O)[C@H](O)[C@H]2O)/C1=C\\COC(=O)/C=C\\c1ccccc1", "ASSIGNED LABEL": "0 (no)"}
{"MOLECULE": "CCOc1ccc(-c2ccc(Cn3c(CC(C)(C)C(=O)O)c(SC(C)(C)C)c4cc(OCc5ccc(C)cn5)ccc43)cc2)cn1", "ASSIGNED LABEL": "0 (no)"}
{"MOLECULE": "CC1CCC2C(C(=O)O)=CC3CC(C)(C)CC132 (centres undefined)", "ASSIGNED LABEL": "1 (yes)"}
{"MOLECULE": "C=CCc1ccc(O[C@@H]2O[C@H](CO)[C@@H](O)[C@H](O)[C@H]2O)c(OC)c1", "ASSIGNED LABEL": "1 (yes)"}
{"MOLECULE": "CC(c1c[nH]c2ccccc12)C(O)C(=O)O (centres undefined)", "ASSIGNED LABEL": "1 (yes)"}
{"MOLECULE": "CC(C)C1(O[C@@H]2O[C@H](CO)[C@@H](O)[C@H](O)[C@H]2O)CC=C(CO)CC1 (some centres undefined)", "ASSIGNED LABEL": "1 (yes)"}

###

# Test system: W2
# MEASUREMENT NOTES: qHTS profiling for inhibitors of Plasmodium falciparum proliferation (AID 504749); note: nearly all actives have a fitted effect of over 60% in size; note: potency is the fitted concentration of half-maximal effect
# MEASUREMENT SETUP: P. falciparum in erythrocytes, SYBR Green DNA, 72 h; series mostly up to 28.7 µM
Records with an inconclusive call do not appear. Activity calls are given as the source filed them. Calls follow the shape of the dose curve; as a rule, active = well fitted inhibition curve with a large enough effect; inconclusive = small, poorly fitted or top-dose-only effect; inactive = flat fitted curve, though single readings scatter.

{"STRUCTURE AS SMILES": "C[C@]12CCC(=O)C=C1CC[C@@H]1[C@@H]2[C@@H](O)C[C@@]2(C)[C@H]1CC[C@]2(O)C(=O)COP(=O)(O)O", "Potency": "inactive"}
{"STRUCTURE AS SMILES": "O=S(=O)(O)O", "Potency": "inactive"}
{"STRUCTURE AS SMILES": "Cc1cn([C@H]2C[C@H](O)[C@@H](CO)O2)c(=O)[nH]c1=O", "Potency": "inactive"}
{"STRUCTURE AS SMILES": "CCOc1ccc2c(c1)C(C)=CC(C)(C)N2", "Potency": "inactive"}
{"STRUCTURE AS SMILES": "Cc1c(C)c2c(c(C)c1O)CC[C@@](C)(CCC[C@@H](C)CCC[C@@H](C)CCCC(C)C)O2", "Potency": "inactive"}
{"STRUCTURE AS SMILES": "CN(C)CCCN1c2ccccc2C(C)(C)c2ccccc21", "Potency": "4260 nM (active)"}
{"STRUCTURE AS SMILES": "O=C1C(=O)c2ncccc2-c2cccnc21", "Potency": "1070 nM (active)"}
{"STRUCTURE AS SMILES": "CCCCCCCC(=O)O", "Potency": "inactive"}
{"STRUCTURE AS SMILES": "CC(C)=O", "Potency": "inactive"}
{"STRUCTURE AS SMILES": "CC1=C(/C=C/C(C)=C/C=C/C(C)=C/C=C/C=C(C)/C=C/C=C(C)/C=C/C2=C(C)CCCC2(C)C)C(C)(C)CCC1", "Potency": "inactive"}
{"STRUCTURE AS SMILES": "CCCCCCCC/C=C\\CCCCCCCC(=O)O", "Potency": "inactive"}

###

# Test system: HEK293
# MEASUREMENT NOTES: Cytotoxic Profiling of Annotated Libraries Using Quantitative High-Throughput Screening (AID 1296008); note: nearly all actives have a fitted effect of over 60% in size
# MEASUREMENT SETUP: Five cell lines viability, CellTiter-Glo ATP luminescence, 48-72 h
Results filed as inconclusive are left out. Activity calls are given as the source filed them. The call rests on the fitted dose curve; in most records, active means well fitted inhibition curve with a large enough effect; inconclusive means small, poorly fitted or top-dose-only effect; inactive means flat fitted curve, though single readings scatter.
REPORTED ENDPOINT: outcome

{"COMPOUND": "CC1CCC2(NC1)OC1C(=O)C3C4CCC5CC(O[C@@H]6O[C@H](CO)[C@@H](O)[C@H](O)[C@H]6O[C@@H]6O[C@@H](C)[C@H](O)[C@@H](O)[C@H]6O)CCC5(C)C4CCC3(C)C1C2C (some centres not stated)", "RESULT": "inactive"}
{"COMPOUND": "C[C@@H]1O[C@@H](O[C@@H]2[C@@H](O)[C@H](O[C@@H]3[C@@H](O)[C@@H](O)[C@H](O[C@H]4[C@H](OC(=O)[C@]56CCC(C)(C)C[C@H]5C5=CCC7[C@@]8(C)C[C@H](O)[C@H](O[C@@H]9O[C@H](C(=O)O)[C@@H](O)[C@H](O)[C@H]9O)[C@@](C)(CO)C8[C@H](O)C[C@@]7(C)[C@]5(C)CC6)OC[C@H](O)[C@@H]4O)O[C@H]3C)OC[C@H]2O)[C@H](O)[C@H](O)[C@H]1O (some centres not stated)", "RESULT": "inactive"}
